Tested on: barnyard grass Echinochloa crusgalli
Assay: Petri dish culture, growth inhibition of root and stalk of barnyard grass
Format: in vivo
Conditions: Echinochloa crus-galli, 120 h, 10 mg/L, root growth, 5 days, read-out: Relative inhibition, root
Description: The synthesized compounds were tested for the herbicidal activity on model plants including a monocotyledon (barnyard grass) and a dicotyledon (rape) by the reported Petri dish culture method. The percent inhibitory ratios against the growth of root and stalk of barnyard grass and rape at different dosage concentrations were calculated, and the compounds with appreciable inhibitory potencies are selected and shown in Table 1 and Table 2. […]
MEASURED_PARAMETER: inhibition at 10 µg/mL
Phrase the answer as number then unit, nothing more needed.

*Q* Determine from records and report inhibition at 10 µg/mL for O=c1oc(COc2ccc(Cl)cc2Cl)nc2ccccc12
*A* 100%

*Q* Determine from records and report inhibition at 10 µg/mL for COc1cc2nc(COc3ccc(Cl)cc3Cl)oc(=O)c2cc1OC
*A* 51.9%

*Q* Determine from records and report inhibition at 10 µg/mL for O=c1oc(COc2ccc(F)cc2)nc2ccccc12
*A* 96.8%

*Q* Determine from records and report inhibition at 10 µg/mL for Cc1ccc2nc(COc3ccc(Cl)cc3)n(C)c(=O)c2c1
*A* 43.5%

*Q* Determine from records and report inhibition at 10 µg/mL for Cn1c(COc2ccc(Cl)cc2)nc2cccc(Cl)c2c1=O
*A* 50.9%

*Q* Determine from records and report inhibition at 10 µg/mL for O=c1oc(COc2ccc(Cl)cc2)nc2ccc(Cl)cc12
*A* 87.8%

// data source = paper PMC6268642
